- experimental.target: Plasmepsin V (Plasmodium falciparum (isolate 3D7), UniProt Q8I6Z5)
- Sequence (Q8I6Z5 whole entry, the tested form may be a part): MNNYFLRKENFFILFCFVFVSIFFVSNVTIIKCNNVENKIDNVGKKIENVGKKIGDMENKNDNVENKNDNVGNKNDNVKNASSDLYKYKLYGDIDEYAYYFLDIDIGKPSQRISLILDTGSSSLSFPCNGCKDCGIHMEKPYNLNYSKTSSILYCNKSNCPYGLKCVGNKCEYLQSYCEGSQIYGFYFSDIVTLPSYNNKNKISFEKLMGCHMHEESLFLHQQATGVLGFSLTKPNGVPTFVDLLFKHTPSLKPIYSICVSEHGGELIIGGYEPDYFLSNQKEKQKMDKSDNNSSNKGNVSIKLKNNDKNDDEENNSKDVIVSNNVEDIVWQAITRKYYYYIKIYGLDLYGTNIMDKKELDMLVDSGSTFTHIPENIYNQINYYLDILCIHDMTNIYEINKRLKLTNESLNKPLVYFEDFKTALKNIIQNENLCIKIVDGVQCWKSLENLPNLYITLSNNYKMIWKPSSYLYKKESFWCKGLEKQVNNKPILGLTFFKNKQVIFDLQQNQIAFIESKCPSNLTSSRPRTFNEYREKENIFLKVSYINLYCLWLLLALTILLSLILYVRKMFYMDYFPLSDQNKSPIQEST
- test.protocol: Inhibition of HA-tagged transgenic Plasmodium falciparum plasmepsin 5 using DABCYL-RNKRTLAQKQ-E-EDANS as substrate after 120 mins by fluorescence plate reader analysis
Square brackets hold non-standard residues; d marks the D form. Peptide text beside a SMILES is read from it. * marks the point of attachment. Sta = CC(C)C[C@H](N)[C@@H](O)CC(=O)O; NHPhenethyl = c1ccc(CCN*)cc1; NMeV = CN[C@H](C(=O)O)C(C)C; Cbz = O=C(OCc1ccccc1)*
metric.name: IC50

input: Indicate its recorded IC50; the compound in question is CC(C)C[C@H](NC(=O)[C@H](C)NC(=O)[C@H](CCCNC(=N)N)NC(=O)OCc1ccccc1)[C@@H](O)CC(=O)N(C)CCc1ccc(Cl)cc1
output: 5.35 µM

input: Indicate its recorded IC50; the compound in question is CC(C)C[C@H](NC(=O)[C@H](C(C)C)N(C)C(=O)[C@H](CCCNC(=N)N)NC(=O)OCc1ccccc1)[C@@H](O)CC(=O)NCCc1ccccc1 (Cbz-Arg-[NMeV]-[Sta]-NHPhenethyl)
output: > 50 µM

input: Indicate its recorded IC50; the compound in question is CC(C)C[C@H](NC(=O)[C@@H](NC(=O)[C@H](CCCNC(=N)N)NC(=O)OCc1ccccc1)C(C)C)[C@@H](O)CC(=O)NCCc1ccccc1 (Cbz-Arg-Val-[Sta]-NHPhenethyl)
output: 0.026 µM

----------
- experimental.target: Plasmepsin V (Plasmodium falciparum (isolate 3D7), UniProt Q8I6Z5)
- test.protocol: Inhibition of HA-tagged transgenic Plasmodium falciparum plasmepsin 5 using DABCYL-RNKRTLAQKQ-E-EDANS as substrate after 120 mins by fluorescence plate reader analysis
Answer each item with its documented IC50.
Numbers only; they are read as µM.

input: Indicate its recorded IC50; the compound in question is CC(C)C[C@@H]([C@@H](O)CC(=O)NCCc1ccc(Cl)cc1)N(C)C(=O)[C@H](C)NC(=O)[C@H](CCCNC(=N)N)NC(=O)OCc1ccccc1
output: 0.89

input: Indicate its recorded IC50; the compound in question is CC(C)C[C@H](NC(=O)[C@H](C)N(C)C(=O)[C@H](CCCNC(=N)N)NC(=O)OCc1ccccc1)[C@@H](O)CC(=O)NCCc1ccc(Cl)cc1
output: 48

input: Indicate its recorded IC50; the compound in question is CC(C)C[C@H](NC(=O)[C@H](C)NC(=O)[C@H](CCCNC(=N)N)N(C)C(=O)OCc1ccccc1)[C@@H](O)CC(=O)NCCc1ccc(Cl)cc1
output: 15.6

input: Indicate its recorded IC50; the compound in question is CC(C)C[C@H](NC(=O)[C@H](C)NC(=O)[C@H](CCCNC(=N)N)NC(=O)OCc1ccccc1)[C@@H](O)CC(=O)NCCc1ccc(Cl)cc1
output: 0.3

----------
- experimental.target: Plasmepsin V (Plasmodium falciparum (isolate 3D7))
- test.protocol: Inhibition of plasmepsin 5 in trophozoite stage of transgenic Plasmodium falciparum infected in erythrocytes assessed as suppression of PEXEL processing of GFP-fused EMP3 at 20 uM after 5 hrs by Western blot analysis
- Type: cell-based
Activity calls are given as the source filed them. The rule behind the calls is not given here. Square brackets hold non-standard residues; d marks the D form. Peptide text beside a SMILES is read from it. * marks the point of attachment. Sta = CC(C)C[C@H](N)[C@@H](O)CC(=O)O; NHPhenethyl = c1ccc(CCN*)cc1; NMeV = CN[C@H](C(=O)O)C(C)C; Cbz = O=C(OCc1ccccc1)*
metric.name: inhibition

Consider the worked cases shown below.
compound: CC(C)C[C@H](NC(=O)[C@H](C)NC(=O)[C@H](CCCNC(=N)N)N(C)C(=O)OCc1ccccc1)[C@@H](O)CC(=O)NCCc1ccc(Cl)cc1
experimental.target: Plasmepsin V (Plasmodium falciparum (isolate 3D7))
inhibition: inactive
//
compound: CC(C)C[C@H](NC(=O)[C@H](C(C)C)N(C)C(=O)[C@H](CCCNC(=N)N)NC(=O)OCc1ccccc1)[C@@H](O)CC(=O)NCCc1ccccc1 (Cbz-Arg-[NMeV]-[Sta]-NHPhenethyl)
experimental.target: Plasmepsin V (Plasmodium falciparum (isolate 3D7))
inhibition: inactive
//
compound: CC(C)C[C@H](NC(=O)[C@H](C)NC(=O)[C@H](CCCNC(=N)N)NC(=O)OCc1ccccc1)[C@@H](O)CC(=O)N(C)CCc1ccc(Cl)cc1
experimental.target: Plasmepsin V (Plasmodium falciparum (isolate 3D7))
inhibition: inactive
//
compound: CC(C)C[C@H](NC(=O)[C@H](C)N(C)C(=O)[C@H](CCCNC(=N)N)NC(=O)OCc1ccccc1)[C@@H](O)CC(=O)NCCc1ccc(Cl)cc1
experimental.target: Plasmepsin V (Plasmodium falciparum (isolate 3D7))
inhibition: inactive
//
compound: CC(C)C[C@H](NC(=O)[C@@H](NC(=O)[C@H](CCCNC(=N)N)NC(=O)OCc1ccccc1)C(C)C)[C@@H](O)CC(=O)NCCc1ccccc1 (Cbz-Arg-Val-[Sta]-NHPhenethyl)
experimental.target: Plasmepsin V (Plasmodium falciparum (isolate 3D7))
inhibition: Active

input: For Plasmepsin V (Plasmodium falciparum (isolate 3D7)), give the measured inhibition of the entry CC(C)C[C@H](NC(=O)[C@H](C)NC(=O)[C@H](CCCNC(=N)N)NC(=O)OCc1ccccc1)[C@@H](O)CC(=O)NCCc1ccc(Cl)cc1
output: Active

input: For Plasmepsin V (Plasmodium falciparum (isolate 3D7)), give the measured inhibition of the entry CC(C)C[C@@H]([C@@H](O)CC(=O)NCCc1ccc(Cl)cc1)N(C)C(=O)[C@H](C)NC(=O)[C@H](CCCNC(=N)N)NC(=O)OCc1ccccc1
output: inactive
